# System: Staphylococcus aureus FDA 209P
# assayExplanation: MIC, Staphylococcus aureus FDA 209P (SA(2))
# Assay type: cell-based
# runConditions: Staphylococcus aureus, FDA209P, Staphylococcus aureus FDA 209P; read-out: MIC SA (2)
MIC: recorded values

compound	MIC
CCC1OC(=O)C(C)C(OC2CC(C)(OC)C(O)C(C)O2)C(C)C(OC2OC(C)CC([N+](C)(C)C)C2O)C2(C)CC(C)=C(O2)C(C)C(OC(C)=O)C1(C)OC(C)=O (centres unmarked)	100 µg/mL
C=CC[N+](C)(C)[C@H]1C[C@@H](C)O[C@@H](O[C@@H]2[C@@H](C)[C@H](O[C@H]3C[C@@](C)(OC)[C@@H](O)[C@H](C)O3)[C@@H](C)C(=O)O[C@H](CC)[C@@](C)(O)[C@H](O)[C@@H](C)C(=O)[C@H](C)C[C@@]2(C)O)[C@@H]1O	50 µg/mL
C=CC[N+](C)(C)C1CC(C)OC(OC2C(C)C(OC3CC(C)(OC)C(O)C(C)O3)C(C)C(=O)OC(CC)C(C)(O)C(O)C(C)C3=C(C)CC2(C)O3)C1O (centres unmarked)	> 100 µg/mL
CCC1OC(=O)C(C)C(OC2CC(C)(OC)C(O)C(C)O2)C(C)C(OC2OC(C)CC([N+](C)(C)CC(=O)OC)C2O)C2(C)CC(C)=C(O2)C(C)C(O)C1(C)O (centres unmarked)	> 100 µg/mL
C#CC[N+](C)(C)C1CC(C)OC(OC2C(C)C(OC3CC(C)(OC)C(O)C(C)O3)C(C)C(=O)OC(CC)C3(C)OC(=O)OC3C(C)C3=C(C)CC2(C)O3)C1O (centres unmarked)	50 µg/mL
CCC1OC(=O)C(C)C(OC2CC(C)(OC)C(O)C(C)O2)C(C)C(OC2OC(C)CC([N+](C)(C)Cc3ccccc3)C2O)C2(C)CC(C)=C(O2)C(C)C(O)C1(C)O (centres unmarked)	100 µg/mL
C#CC[N+](C)(C)[C@H]1C[C@@H](C)O[C@@H](O[C@@H]2[C@@H](C)[C@H](O[C@H]3C[C@@](C)(OC)[C@@H](OC=O)[C@H](C)O3)[C@@H](C)C(=O)O[C@H](CC)[C@@](C)(O)[C@H](O)[C@@H](C)C3=C(C)C[C@@]2(C)O3)[C@@H]1O	> 100 µg/mL
C#CCN(CC=C)C1CC(C)OC(OC2C(C)C(OC3CC(C)(OC)C(O)C(C)O3)C(C)C(=O)OC(CC)C(C)(O)C(O)C(C)C3=C(C)CC2(C)O3)C1O (centres unmarked)	> 100 µg/mL
CCC1OC(=O)C(C)C(OC2CC(C)(OC)C(O)C(C)O2)C(C)C(OC2OC(C)CC([N+](CC)(CC)CC)C2O)C2(C)CC(C)=C(O2)C(C)C(O)C1(C)O (centres unmarked)	> 100 µg/mL
CCC1OC(=O)C(C)C(OC2CC(C)(OC)C(O)C(C)O2)C(C)C(OC2OC(C)CC([N+]3(C)CCCC3)C2O)C2(C)CC(C)=C(O2)C(C)C(O)C1(C)O (centres unmarked)	> 100 µg/mL
CCC1OC(=O)C(C)C(OC2CC(C)(OC)C(O)C(C)O2)C(C)C(OC2OC(C)CC(N3CCCC3)C2O)C2(C)CC(C)=C(O2)C(C)C(O)C1(C)O (centres unmarked)	> 100 µg/mL
